- SYSTEM: Argonaute 2 (AGO2), loaded with miR-34a (Homo sapiens, UniProt Q9UKV8 1-859)
- Sequence (Q9UKV8 whole entry): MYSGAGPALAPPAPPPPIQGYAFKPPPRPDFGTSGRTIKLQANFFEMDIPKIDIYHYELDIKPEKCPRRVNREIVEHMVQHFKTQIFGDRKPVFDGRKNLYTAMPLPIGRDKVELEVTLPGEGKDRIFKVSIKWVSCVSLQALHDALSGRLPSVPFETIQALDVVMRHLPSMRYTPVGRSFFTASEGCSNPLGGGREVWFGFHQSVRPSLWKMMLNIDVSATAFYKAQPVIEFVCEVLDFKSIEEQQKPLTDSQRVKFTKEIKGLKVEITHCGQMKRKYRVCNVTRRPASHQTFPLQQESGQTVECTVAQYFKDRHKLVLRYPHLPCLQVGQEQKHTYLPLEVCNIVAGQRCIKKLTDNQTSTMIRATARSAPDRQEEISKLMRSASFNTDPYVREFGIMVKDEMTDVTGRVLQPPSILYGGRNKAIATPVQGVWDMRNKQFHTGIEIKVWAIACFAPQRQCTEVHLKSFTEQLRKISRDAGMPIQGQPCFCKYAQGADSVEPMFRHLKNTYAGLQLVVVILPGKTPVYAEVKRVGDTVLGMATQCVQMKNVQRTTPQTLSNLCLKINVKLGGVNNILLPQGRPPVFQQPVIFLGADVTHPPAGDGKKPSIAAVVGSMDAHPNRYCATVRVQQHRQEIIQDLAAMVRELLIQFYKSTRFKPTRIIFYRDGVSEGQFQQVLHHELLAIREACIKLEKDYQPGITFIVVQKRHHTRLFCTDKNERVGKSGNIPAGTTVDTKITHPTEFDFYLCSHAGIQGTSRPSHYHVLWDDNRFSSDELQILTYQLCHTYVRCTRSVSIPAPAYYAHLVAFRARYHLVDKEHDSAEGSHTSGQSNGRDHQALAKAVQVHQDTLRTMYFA
- PROCEDURE TEXT: EMSA
PROPERTY MEASURED: Kd (nM)
Numbers only; they are read as nM.

input: I am curious: what Kd value has been reported for miR-34a guide / NOTCH2 target (dsRNA, 5' phosphate on guide) RNA 1: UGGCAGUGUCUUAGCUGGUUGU RNA 2: UCAGUGAUGAGGAGGACAACACUGCCU ?
output: 496
